- System: Mus musculus
- Measurement Protocol: In vivo antimalarial activity against Plasmodium berghei N on subcutaneous administration.
- Assay type: functional
- Condition Notes: sc
ED90 vs 2 mg/kg: less than gives Condition met; not less than gives Condition not met.

INSERT INTO measurements (molecule, category) VALUES
  ('C[C@H]1[C@H](c2cccn2C)O[C@@H]2OC3(C)CC[C@H]4[C@H](C)CC[C@@H]1[C@@]24OO3 (single isomer, unassigned)', 'Condition met'),
  ('CCN(CC)CCCC(C)Nc1ccnc2cc(Cl)ccc12 (stereo unspecified) [CHLOROQUINE]', 'Condition not met'),
  ('CCO[C@H]1O[C@@H]2O[C@@]3(C)CC[C@H]4[C@H](C)CC[C@@H]([C@H]1C)[C@@]24OO3 [ARTEMOTIL]', 'Condition met'),
  ('C[C@@H]1CC[C@H]2[C@@H](C)C(=O)O[C@@H]3O[C@@]4(C)CC[C@@H]1[C@]32OO4 [ARTEMISININ]', 'Condition not met');
